For each record, write down the corresponding normalised response.
Tested on: CAL-120
Assay: normalised response (% of control), CellTiter-Glo; higher = more viable cells (100 = DMSO, 0 = benzethonium chloride kill control)
Settings: incubation time: 72 h
Numbers only, in %.

Observe how each entry below is paired with its result.
C=CCNC1=C2C[C@@H](C)C[C@H](OC)[C@H](O)[C@@H](C)/C=C(\C)[C@H](OC(N)=O)[C@@H](OC)/C=C\C=C(/C)C(=O)NC(=CC1=O)C2=O [Tanespimycin] (1 nM) :: 92.5
C=CCNC1=C2C[C@@H](C)C[C@H](OC)[C@H](O)[C@@H](C)/C=C(\C)[C@H](OC(N)=O)[C@@H](OC)/C=C\C=C(/C)C(=O)NC(=CC1=O)C2=O [Tanespimycin] (10 nM) :: 97.9
Nc1ccn([C@@H]2O[C@H](CO)[C@@H](O)[C@@H]2O)c(=O)n1 [Cytarabine] (1000 nM) :: 88
S=c1[nH]cnc2nc[nH]c12 [Mercaptopurine] (1 nM) :: 99.5
COc1cccc2c1C(=O)c1c(O)c3c(c(O)c1C2=O)C[C@@](O)(C(=O)CO)C[C@@H]3O[C@H]1C[C@H](N)[C@H](O)[C@H](C)O1 [Doxorubicin] (0.1 nM) :: 100

Could you now consider this next compound?
Asked: Tell me normalised response reported for CC[C@]1(O)C[C@@H]2CN(CCc3c([nH]c4ccccc34)[C@@](C(=O)OC)(c3cc4c(cc3OC)N(C)[C@H]3[C@@](O)(C(=O)OC)[C@H](OC(C)=O)[C@]5(CC)C=CCN6CC[C@]43[C@@H]65)C2)C1 [Vinblastine] (0.1 nM)
Given back: 95.9

====

Test system: CAL-85-1
Assay: drug sensitivity score (DSS), CellTiter-Glo (DSS (AUC-based score)); higher = stronger drug effect (viability inhibition or cytotoxicity); extreme values may be limits of the assay
Settings: incubation time: 72 h
MEASURE NAME: drug sensitivity score
Answers are plain numbers.

C[C@]1(c2nc3c(C(N)=O)cccc3[nH]2)CCCN1 :: 0
CC(=O)O[C@]1(C(C)=O)CC[C@H]2[C@@H]3C=C(C)C4=CC(=O)CC[C@]4(C)[C@H]3CC[C@@]21C [Megestrol acetate] :: 0
CN1CC[C@H](c2c(O)cc(O)c3c(=O)cc(-c4ccccc4Cl)oc23)[C@H](O)C1 :: 16.3
O=C(c1ccc(C(=O)N2CCC(N3CCCC3)CC2)c(Nc2ccccc2)c1)N1CCC(N2CCCC2)CC1 :: 0
COc1cccc2cc(-c3nc([C@H]4CC[C@H](C(=O)O)CC4)n4ncnc(N)c34)[nH]c12 :: 5.52
CO[C@H]1C[C@@H]2CC[C@@H](C)[C@@](O)(O2)C(=O)C(=O)N2CCCC[C@H]2C(=O)O[C@H]([C@H](C)C[C@@H]2CC[C@@H](OC(=O)C(C)(CO)CO)[C@H](OC)C2)CC(=O)[C@H](C)/C=C(\C)[C@@H](O)[C@@H](OC)C(=O)[C@H](C)C[C@H](C)/C=C/C=C/C=C/1C :: 9.28
C=CCNC1=C2C[C@@H](C)C[C@H](OC)[C@H](O)[C@@H](C)/C=C(\C)[C@H](OC(N)=O)[C@@H](OC)/C=C\C=C(/C)C(=O)NC(=CC1=O)C2=O :: 13.3
CN1CCC(COc2cnc(-c3cccc(Cn4nc(-c5cccc(C#N)c5)ccc4=O)c3)nc2)CC1 :: 0

Could you now consider this next compound?
Asked: Tell me drug sensitivity score reported for COc1cccc2c1C(=O)c1c(O)c3c(c(O)c1C2=O)C[C@@](O)(C(=O)CO)C[C@@H]3O[C@H]1C[C@H](N)[C@H](O)[C@H](C)O1
Given back: 2.97

====

For each record, write down the corresponding normalised viability.
System: BT-549
Experiment: normalised viability (% of control), CellTiter-Blue; higher = more viable cells (about 100 = DMSO control)
Details: 10000 nM; incubation time: 72 h
One number for each entry, in %.

COc1cccc2cc(-c3nc([C@H]4CC[C@H](C(=O)O)CC4)n4ncnc(N)c34)[nH]c12 [OSI-027] :: 16.1
S=c1[nH]cnc2nc[nH]c12 [Mercaptopurine] :: 95.6
Nc1ccn([C@@H]2O[C@H](CO)[C@@H](O)[C@@H]2O)c(=O)n1 [Cytarabine] :: 62.9
CN1CC[C@H](c2c(O)cc(O)c3c(=O)cc(-c4ccccc4Cl)oc23)[C@H](O)C1 [Alvocidib] :: 7.78
C=CC[C@@H]1/C=C(\C)C[C@H](C)C[C@H](OC)[C@H]2O[C@@](O)(C(=O)C(=O)N3CCCC[C@H]3C(=O)O[C@H](/C(C)=C/[C@@H]3CC[C@@H](O)[C@H](OC)C3)[C@H](C)[C@@H](O)CC1=O)[C@H](C)C[C@@H]2OC [Tacrolimus] :: 89.8

Could you now consider this next molecule?
Asked: Look up and report normalised viability, with BT-549 as system, for Clc1ccc(C(c2ccccc2Cl)C(Cl)Cl)cc1 (stereo unspecified) [Mitotane]
Given back: 102

====

For each record, write down the corresponding normalised response.
Test system: BT-474
Experiment: normalised response (% of control), CellTiter-Glo; higher = more viable cells (100 = DMSO, 0 = benzethonium chloride kill control)
Settings: incubation time: 72 h
Reply with the number and its unit after it.

COc1cccc2cc(-c3nc([C@H]4CC[C@H](C(=O)O)CC4)n4ncnc(N)c34)[nH]c12 [OSI-027] (1000 nM) :: 79.6%
CO[C@H]1C[C@@H]2CC[C@@H](C)[C@@](O)(O2)C(=O)C(=O)N2CCCC[C@H]2C(=O)O[C@H]([C@H](C)C[C@@H]2CC[C@@H](OC(=O)C(C)(CO)CO)[C@H](OC)C2)CC(=O)[C@H](C)/C=C(\C)[C@@H](O)[C@@H](OC)C(=O)[C@H](C)C[C@H](C)/C=C/C=C/C=C/1C [Temsirolimus] (0.01 nM) :: 103%
N#CC[C@H](C1CCCC1)n1cc(-c2ncnc3[nH]ccc23)cn1 [Ruxolitinib] (1 nM) :: 96.8%
CO[C@H]1C[C@@H]2CC[C@@H](C)[C@@](O)(O2)C(=O)C(=O)N2CCCC[C@H]2C(=O)O[C@H]([C@H](C)C[C@@H]2CC[C@@H](OC(=O)C(C)(CO)CO)[C@H](OC)C2)CC(=O)[C@H](C)/C=C(\C)[C@@H](O)[C@@H](OC)C(=O)[C@H](C)C[C@H](C)/C=C/C=C/C=C/1C [Temsirolimus] (0.1 nM) :: 104%

Could you now consider this next molecule?
Asked: Tell me normalised response reported for CC(=O)O[C@]1(C(C)=O)CC[C@H]2[C@@H]3C=C(C)C4=CC(=O)CC[C@]4(C)[C@H]3CC[C@@]21C [Megestrol acetate] (10 nM)
Given back: 102%

====

Test system: MDA-MB-436
Assay: normalised response (% of control), CellTox Green; higher = less cell death (100 = DMSO, 0 = benzethonium chloride kill control)
Details: incubation time: 72 h
For each record, write down the corresponding normalised response.
Numbers only, in %.

Observe how each entry below is paired with its result.
Nc1nc(Cl)nc2c1ncn2[C@H]1C[C@H](O)[C@@H](CO)O1 [Cladribine] (100 nM) :: 73.8
CO[C@H]1C[C@@H]2CC[C@@H](C)[C@@](O)(O2)C(=O)C(=O)N2CCCC[C@H]2C(=O)O[C@H]([C@H](C)C[C@@H]2CC[C@@H](OC(=O)C(C)(CO)CO)[C@H](OC)C2)CC(=O)[C@H](C)/C=C(\C)[C@@H](O)[C@@H](OC)C(=O)[C@H](C)C[C@H](C)/C=C/C=C/C=C/1C [Temsirolimus] (1 nM) :: 99.8
CN(C)C/C=C/C(=O)Nc1cc2c(Nc3ccc(F)c(Cl)c3)ncnc2cc1O[C@H]1CCOC1 [Afatinib] (10 nM) :: 96.1

Each of the following entries comes with a recorded value; kindly state normalised response for each.
1. Cc1ccc(F)c(NC(=O)Nc2ccc(-c3cccc4[nH]nc(N)c34)cc2)c1 [Linifanib] (10 nM)
2. CS(=O)(=O)c1ccc(C(=O)Nc2ccc(Cl)c(-c3ccccn3)c2)c(Cl)c1 [Vismodegib] (100 nM)
3. N#CC[C@H](C1CCCC1)n1cc(-c2ncnc3[nH]ccc23)cn1 [Ruxolitinib] (100 nM)
4. CN1CCC(COc2cnc(-c3cccc(Cn4nc(-c5cccc(C#N)c5)ccc4=O)c3)nc2)CC1 (100 nM)

Given back:
[72.8, 91.3, 83.7, 99.9]

Each of the following entries comes with a recorded value; kindly state normalised response for each.
1. OC[C@H]1O[C@@H](n2cnc3c2N=CNC[C@H]3O)C[C@@H]1O [Pentostatin] (100 nM)
2. CN(C)C/C=C/C(=O)Nc1cc2c(Nc3ccc(F)c(Cl)c3)ncnc2cc1O[C@H]1CCOC1 [Afatinib] (1000 nM)
3. CCN1CCN(c2ccc(Nc3cc(N(C)C(=O)Nc4c(Cl)c(OC)cc(OC)c4Cl)ncn3)cc2)CC1 [NVP-BGJ398] (10 nM)

Given back:
90.5
102
103

Each of the following entries comes with a recorded value; kindly state normalised response for each.
1. Cc1ccc(F)c(NC(=O)Nc2ccc(-c3cccc4[nH]nc(N)c34)cc2)c1 [Linifanib] (1000 nM)
2. Clc1ccc(C(c2ccccc2Cl)C(Cl)Cl)cc1 (stereo not given) [Mitotane] (100 nM)
3. CC[C@]1(O)C[C@@H]2CN(CCc3c([nH]c4ccccc34)[C@@](C(=O)OC)(c3cc4c(cc3OC)N(C)[C@H]3[C@@](O)(C(=O)OC)[C@H](OC(C)=O)[C@]5(CC)C=CCN6CC[C@]43[C@@H]65)C2)C1 [Vinblastine] (1000 nM)
4. CN1CC[C@H](c2c(O)cc(O)c3c(=O)cc(-c4ccccc4Cl)oc23)[C@H](O)C1 [Alvocidib] (1000 nM)
5. S=c1[nH]cnc2nc[nH]c12 [Mercaptopurine] (10000 nM)

Given back:
[107, 88.1, 83.1, 80.5, 93.6]
